Test system: A. baumannii strain 98-37-09
test_description: AK assay 384-well format, Prestwick library screening
Assay type: cell-based, Acinetobacter baumannii
test_context: Acinetobacter baumannii, 983709, 3 h; 50 μM final drug concentration; planktonic; cutoff for positive 3-fold increase; read-out: AK-based Prestwick Library Screening Results, A. baumannii (fold increase in extracellular AK activity)
Where a name gives a salt, the structure may show the parent alone.
measured_metric: fold induction at 50 µM
The reply should be a number, written without any unit.

Bench note, A. baumannii strain 98-37-09: entry C=CCN1CCCC1CNC(=O)c1cc2[nH]nnc2cc1OC (centres unmarked) [Alizapride HCl] , its fold induction at 50 µM = 1.1

For the compound CO[C@@]1(NC(=O)C2SC(=C(C(N)=O)C(=O)O)S2)C(=O)N2C(C(=O)O)=C(CSc3nnnn3C)CS[C@@H]21 (some centres unmarked) , the measured fold induction at 50 µM on A. baumannii strain 98-37-09 was 2

Note to self: fold induction at 50 µM of CCN(CC)CCOCCOC(=O)C1(c2ccccc2)CCCC1 [Carbetapentane citrate] with A. baumannii strain 98-37-09 was 1.4

Record COc1ccc(C[C@H](N)C(=O)N[C@H]2[C@@H](O)[C@H](n3cnc4c(N(C)C)ncnc43)O[C@@H]2CO)cc1 [Puromycin dihydrochloride] / A. baumannii strain 98-37-09, fold induction at 50 µM recorded as 1.6

Observed fold induction at 50 µM, A. baumannii strain 98-37-09, "O=C1C[C@@H](c2ccc(O)cc2)Oc2cc(O)cc(O)c21" : 1.2

CNCC(O)c1ccc(OC(=O)C(C)(C)C)c(OC(=O)C(C)(C)C)c1 (centres unmarked) [Dipivefrin hydrochloride] tested on A. baumannii strain 98-37-09 gave fold induction at 50 µM: 1.4

// fold induction at 50 µM (A. baumannii strain 98-37-09) for "CO[C@H]1/C=C/O[C@@]2(C)Oc3c(C)c(O)c4c(O)c(c(/C=N/N5CCN(C)CC5)c(O)c4c3C2=O)NC(=O)/C(C)=C\C=C\[C@H](C)[C@H](O)[C@@H](C)[C@@H](O)[C@@H](C)[C@H](OC(C)=O)[C@@H]1C" = 3

# COc1cc([C@@H]2c3cc4c(cc3[C@@H](O[C@@H]3O[C@@H]5CO[C@@H](C)O[C@H]5[C@H](O)[C@H]3O)[C@H]3COC(=O)[C@H]23)OCO4)cc(OC)c1O [Etoposide] with A. baumannii strain 98-37-09: fold induction at 50 µM is 1.2

For the next question, use this compound.
// assay A. baumannii strain 98-37-09, entry CC1=NCCc2c1[nH]c1cc(O)ccc21 [Harmalol hydrochloride dihydrate] , fold induction at 50 µM value = 1.1
